- TEST: Solubility of upadacitinib in different aqueous media at 37° C.
- Type: physicochemical
- EXPERIMENTAL CONTEXT: 50 mM carbonate buffer, 37 °C, pH 9.11, aqueous buffer, thermodynamic from solid

- MOLECULE: "CC[C@@H]1CN(C(=O)NCC(F)(F)F)C[C@@H]1c1cnc2cnc3[nH]ccc3n12 [Upadacitinib]"
  solubility (µg/mL): 199

// data source = patent US20260256778A1
